Data origin, for the record: PubChem BioAssay

Exercise: for every item that follows, state its recorded nuclei count.
Assay: inhibitors of E-selectin induction by TNFa, primary screen, imaging, HUVEC, immunofluorescence, MLSMR starter and 10KST1 sets (AID 487);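 note: 100% = median nuclei count of all wells on the same plate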
Conditions: HUVEC TNFalpha-induced E-selectin immunofluorescence imaging, at 2 µM; measured here: cell number, toxicity
API: value field is a number in %; no unit string.

Qu. // returns reported nuclei count for input Cc1cc(C)n(CC2CC(=O)N(c3ccc(C)c(Cl)c3)C2=O)n1 (stereo not given)
Ans. 93.4

Qu. Can you handle N#Cc1c(N)n(CCOC(=O)c2ccc(Cl)cc2)c2nc3ccccc3nc12 next?
Ans. 95

Qu. // query: CCOc1ccc(S(=O)(=O)NC(C)(C)C)cc1-c1nc2c(C(C)(C)C)nn(C)c2c(=O)[nH]1
Ans. 99.3

Qu. Try this compound next: COC(=O)c1ccccc1NC(=O)Cn1ccnc1
Ans. 86.6

Qu. CC(=O)CCn1c(=O)n(CCC(C)=O)c(=O)n(CCC(C)=O)c1=O ?
Ans. 97.7

====

Assay: inhibitors of TNFa-induced NFkB p65 translocation, primary screen, imaging, HUVEC, MLSMR starter and 10KST1 sets (AID 438);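 note: compound added about 3h40 before a 20 min TNFalpha stimulation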
Settings: HUVEC TNFa-induced p65 nuclear translocation; measured here: nuclei count (cytotoxicity indicator), at 2.08 µM
Label scheme for cell count: lower than 400 is F, 400 and above is T.

Qu. Is reported cell count greater than or equal to 400 here: CCOC(=O)c1cc(C)sc1N1C(=O)C2C3C=CC(C3)C2C1=O (configuration not stated)
Ans. F

Qu. Ok, now Clc1ccc(-n2ncc3c(NCc4ccco4)ncnc32)cc1
Ans. T

Qu. Same read-out for CC(=O)C1=C(O)C(=O)N(c2ccc(S(N)(=O)=O)cc2)C1c1ccccc1F (configuration not stated) ?
Ans. F

Qu. What would you report for COc1ccc(Nc2nnc(C)c3ccccc23)cc1C(N)=O ?
Ans. T

Qu. Subsequent entry: CCOCCCNC(=O)C1CC(=O)N(C2CCCC2)C1 (configuration not stated)
Ans. T

Qu. Input COc1ccc(C(=O)NCCc2nnc(SCc3nc4ccccc4c(=O)[nH]3)n2C)cc1
Ans. F

Qu. // same read-out, input: Cc1cc(=O)oc(C)c1C(=O)NCCc1ccccc1
Ans. T

Qu. Here is the next compound: CNc1oc(-c2cccs2)nc1C#N
Ans. T

Qu. Next up: CCCCNc1cc(C)oc(=O)c1C(C)=O
Ans. T

Qu. Next entry: CC(=O)N(C(C)=O)c1c(C#N)c(C)n(-c2ccccc2)c1C(=O)c1ccccc1
Ans. T

====

Target: Dual specificity protein phosphatase 6 (Homo sapiens) (UniProt Q16828)
Sequence (Q16828 whole entry, looked up): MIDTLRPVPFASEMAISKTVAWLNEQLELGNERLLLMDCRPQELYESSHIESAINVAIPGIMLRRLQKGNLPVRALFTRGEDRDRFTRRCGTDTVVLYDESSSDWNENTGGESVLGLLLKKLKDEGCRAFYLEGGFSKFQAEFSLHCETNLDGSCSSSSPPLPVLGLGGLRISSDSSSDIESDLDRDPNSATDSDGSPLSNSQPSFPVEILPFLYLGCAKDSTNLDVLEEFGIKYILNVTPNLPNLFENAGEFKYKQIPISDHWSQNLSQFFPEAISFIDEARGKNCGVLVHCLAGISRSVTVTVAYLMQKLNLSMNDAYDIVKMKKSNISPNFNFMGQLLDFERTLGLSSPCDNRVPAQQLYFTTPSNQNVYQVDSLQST
Assay: DUSP6 inhibitors restoring Erk phosphorylation by chemical complementation, primary imaging in DUSP6-transfected HeLa (AID 609);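 note: phospho-Erk level distribution per well compared with pooled transfected vehicle control wells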
Details: HeLa MKP-3 transfected, phospho-Erk imaging KS statistic; at 10 µM; stronger effect = higher value; cells stimulated with TPA for 15 min
Assign inhibition to each entry below.
Give the value, in units of %, as a plain number.

Qu. Please look up its inhibition: Cc1nc2c(c(N3CCOCC3)n1)OCC(=O)N2
Ans. -4.59

Qu. Another molecule: O=C(CSc1nc2ccccc2c(=O)n1CC1CCCCC1)N1CCOCC1
Ans. 7.42

Qu. Subsequent entry: Cn1c(N2CCN(c3ccccn3)CC2)nc2c1c(=O)n(Cc1ccc(Cl)cc1)c(=O)n2C
Ans. 27.8

Qu. Then what about the molecule Cc1cc(CC(=O)O)c(C)cc1CC(=O)O ?
Ans. -7.67

Qu. Same question, Cc1cc(C)c(S(=O)(=O)O)c(C)n1 this time
Ans. -5.95

Qu. Field entry: CCCCOC(=O)c1ccc(NC(=O)CSc2nncn2C)cc1
Ans. -0.624

Qu. Another: CC(=O)[C@H]1[C@@H]2C(=O)N(c3cccc(Cl)c3)C(=O)[C@@H]2[C@H]2c3ccccc3C=CN21
Ans. -2.47

Qu. Then what about the molecule Cc1cccc(-n2ncc3c(NCCN4CCOCC4)ncnc32)c1 ?
Ans. -2.59

Qu. Please give the result for Cc1cc(=O)oc(C)c1C(=O)NCC(C)C too.
Ans. 23.8

Qu. Same thing, different molecule: CCCc1cc(NCCN2CCOCC2)n2c(nc3ccccc32)c1C#N
Ans. 1.98

Qu. Ok, now CCCCN1C(=O)C(O)=C(C(C)=O)C1c1ccc(OC)cc1OC (configuration not stated)
Ans. -7.28

Qu. What do you get for COc1ccc(C(=O)CCN2CCCCCC2)cc1 ?
Ans. 5.42

====

Target: Alpha-2C adrenergic receptor (Homo sapiens) (UniProt P18825)
Sequence (P18825 whole entry, looked up): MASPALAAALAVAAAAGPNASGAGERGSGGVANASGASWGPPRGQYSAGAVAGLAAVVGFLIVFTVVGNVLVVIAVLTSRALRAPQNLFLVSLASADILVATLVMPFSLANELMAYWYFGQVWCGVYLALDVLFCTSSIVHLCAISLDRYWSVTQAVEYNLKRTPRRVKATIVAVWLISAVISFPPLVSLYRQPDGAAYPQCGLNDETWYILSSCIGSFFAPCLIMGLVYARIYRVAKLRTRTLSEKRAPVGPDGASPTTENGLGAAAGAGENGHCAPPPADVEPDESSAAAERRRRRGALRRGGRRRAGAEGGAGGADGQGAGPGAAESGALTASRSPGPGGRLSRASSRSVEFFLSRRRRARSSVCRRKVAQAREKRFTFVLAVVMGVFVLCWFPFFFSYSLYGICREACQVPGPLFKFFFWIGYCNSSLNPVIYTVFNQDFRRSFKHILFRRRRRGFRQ
Assay: modulators of alpha2C/GIRK thallium flux, primary screen, cell-based, HEK293 alpha2C/GIRK1/2 (AID 624);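 note: slope of fluorescence ratio to pre-addition baseline per second over 15 to 24 s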
Settings: thallium flux BTC fluorescence, at 10 µM, actives lie on both sides
PARAMETER_MEASURED: slope
Enter a number only.

Qu. Item under review: CCN1CCN(C(CNC(=O)c2ccc3c(c2)OCO3)c2cccnc2)CC1 (stereo unspecified) . Reported slope?
Ans. 0.00612

Qu. Next record, please: COc1ccc(CCNc2oc(COc3ccc(F)cc3)nc2C#N)cc1
Ans. 0.00681

Qu. Repeat for the following compound: Cc1ccc(NC2=NCC(=O)N2c2ccc3c(c2)OCCO3)c(C)c1
Ans. 0.00458

Qu. Could you do the same for O=c1[nH]c(NCc2ccco2)nnc1Cc1ccccc1Cl , please?
Ans. 0.0051

Qu. Can you handle CCCOc1cccc(C(=O)N(Cc2ccco2)C2CCS(=O)(=O)C2)c1 (stereo unspecified) next?
Ans. 0.00536

Qu. How about this compound: COc1ccc(S(=O)(=O)N2CCC(C(=O)c3ccc4c(c3)OCCO4)CC2)cc1
Ans. 0.00739

Qu. What do you have for CCCC1(C(=O)OCC)NC(c2ccc(N(C)C)cc2)C2C(=O)N(c3ccc(F)cc3)C(=O)C21 (stereo unspecified) ?
Ans. 0.00411

Qu. What do we get for Cc1cc(-n2c(C)cc(C(=O)CSc3nnnn3-c3ccc(Cl)cc3)c2C)no1 ?
Ans. 0.00589

Qu. Please answer likewise for O=C(/C=N/O)NCc1ccncc1
Ans. 0.00648

Qu. One more compound: Oc1ccc(-c2n[nH]c(=S)n2Cc2ccccc2)cc1
Ans. 0.00348

Qu. Try CCOCC(=O)Nc1sc2c(c1C(=O)OCC)CCCC2 next.
Ans. 0.00551

====

Hi there, I'd appreciate the recorded cell count for every entry that follows.
Assay: inhibitors of TNFa-induced NFkB p65 translocation, primary screen, imaging, HUVEC, MLSMR starter and 10KST1 sets (AID 438);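 note: compound added about 3h40 before a 20 min TNFalpha stimulation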
Conditions: HUVEC TNFa-induced p65 nuclear translocation; measured here: nuclei count (cytotoxicity indicator), at 2.08 µM
Form field (numeric): enter value without unit.

Qu. Name the recorded cell count for COc1cc(-c2noc(-c3ccccc3C(=O)NCc3ccco3)n2)cc(OC)c1OC .
Ans. 654

Qu. Also, CC(C)(CSc1nncn1N)NS(=O)(=O)c1ccc(Cl)cc1 please.
Ans. 690

Qu. Please do the same for COc1ccc(OC)c2[nH]c(=O)c(CCNC(=O)C(C)C)cc12 as well.
Ans. 629

Qu. Can you check O=C(O)C1CC(=O)N(Cc2cccs2)C1 (stereo not drawn) next?
Ans. 557

Qu. Param item: C=CCSC1=C(C#N)C(c2ccccc2)CC(=O)N1 (stereo not drawn)
Ans. 486

Qu. Lookup CN(CCNC(=O)c1ccc(/C=N/O)nc1)Cc1ccccc1
Ans. 620

Qu. Entry COc1ccc(OC)c(Nc2ncnc3c2cnn3-c2ccccc2)c1 please
Ans. 334

Qu. Record: CCc1nnc(NC(=O)NCN2C(=O)C3C4C=CC(C4)C3C2=O)s1 (stereo not drawn)
Ans. 303

Qu. Check c1ccc2c(Cn3ccnc3)c[nH]c2c1 too.
Ans. 410

Qu. Try this compound too: CCN(CC)CCn1c(OC)cc(=O)[nH]c1=O
Ans. 411

Qu. // next record O=C(Nc1ncccc1Cl)c1cccc(F)c1
Ans. 527

Qu. What do we get for CCOc1cc(C(=O)Nc2c3c(nn2C(C)(C)C)CS(=O)C3)cc(OCC)c1OCC (stereo not drawn) ?
Ans. 525

Qu. Again, but for CCN(CC)CCN1C(=O)C(=O)/C(=C(/O)c2c(C)[nH]c(C(=O)OC)c2C)C1c1ccccc1OC (stereo not drawn)
Ans. 280

Qu. Next compound: CC(=O)/C(C#N)=C1\NC(=O)C(Cc2ccccc2)S1 (stereo not drawn)
Ans. 574

Qu. Let us now turn to COc1cccc(C2/C(=C(\O)c3ccc4c(c3)OCCO4)C(=O)C(=O)N2CCCN(C)C)c1OC (stereo not drawn)
Ans. 396

Qu. Please do the same for CCOC(=O)C1=C(C)N(C)C(=O)NC1c1ccccc1OC (stereo not drawn) as well.
Ans. 692

Qu. Try this compound too: COCCCNC(=O)c1c(N)n(-c2cccc(S(N)(=O)=O)c2)c2nc3ccccc3nc12
Ans. 245

Qu. Can you check O=C(Nc1nnc(-c2ccc(Cl)cc2)o1)C1CCCCC1 next?
Ans. 673

Qu. Item: CCCC(=O)Nc1nnc(CC(=O)N2CCCC2)s1
Ans. 845

Qu. Do the same for CCOCCn1c(CN2CCN(CC)CC2)nc2c1c(=O)n(C)c(=O)n2C please
Ans. 638

Qu. What do you get for CC1(C)Cc2[nH]c(=S)c(C#N)cc2CO1 ?
Ans. 531

Qu. Cool, now CCN(CC)c1ccc(C2Nc3cccc4cccc(c34)N2)c(O)c1
Ans. 571

Qu. What would you report for CCn1cc(C(C)NC(=O)COc2ccc(Cl)cc2C)c(C)n1 (stereo not drawn) ?
Ans. 713
